# credit: PubChem BioAssay

# ASSAY_INFO: inhibition of PAO1 biofilm formation – strain PAO1, LB-PBS medium, absorbance 600 nm, primary screen (AID 1176); further: test concentration not given here
# MEASUREMENT_CONDITIONS: P. aeruginosa PAO1 growth/biofilm, A600, 12 h; higher = more signal
Calls of active or inactive are those of the source. How the calls were made is not given here.
Catalogue of compounds with associated z-score

Sample records with z-score:
- COMPOUND: "COCCOC(=O)N1C(=O)[C@@]2(c3ccccc31)[C@H](C(N)=O)[C@H]1C(=O)O[C@H](c3ccccc3)[C@H](c3ccccc3)N1[C@@H]2c1ccc(O)cc1"
  z-score: "0.806 (inactive)"
- COMPOUND: "O=C(CS)NCCCCCNC(=O)[C@@H]1C[C@@H]2C(=O)NCC(=O)N2[C@@H]1c1cccc(OCCO)c1"
  z-score: "0.752 (inactive)"
- COMPOUND: "C#CCN(C/C=C/c1ccccc1)[C@H](CO)c1ccccc1"
  z-score: "-0.128 (inactive)"

Ask | I would be grateful if you could share the reported z-score for CCCCN1CC=CC23O[C@@H]4C=CCOC(=O)[C@@H]4[C@H]2C(=O)N(CCCCCCO)[C@@H]3C1=O (some centres not stated) .
Reply | -0.112 (inactive)

Ask | Now consider CN1C(=O)C2C=CC(C(O)c3c(F)cccc3Cl)N(NC(=O)OC(C)(C)C)C2C1=O (configuration not stated) .
Reply | 0.791 (inactive)

Ask | Now consider COc1ccc([Si](C)(C)[C@H]2[C@H](CCn3cc([C@H](O)c4ccccc4)nn3)O[C@@]3(C(=O)N(C)c4ccccc43)[C@@H]2C)cc1 .
Reply | 0.92 (inactive)

Ask | Now consider COCCOC(=O)N1C(=O)[C@@]2(c3ccccc31)[C@H](C(=O)N1CCc3cc(OC)c(OC)cc3C1)[C@H]1C(=O)O[C@H](c3ccccc3)[C@H](c3ccccc3)N1[C@@H]2c1ccc(O)cc1 .
Reply | 2.16 (inactive)

Ask | Now consider CCCC=C(CCC)[C@@H](NC(=O)OCC(C)C)c1ccccc1 .
Reply | 2.77 (inactive)

Ask | Now consider COC(=O)[C@]1(Cc2ccccc2)N=C(c2ccc(OCCCO)cc2)O[C@@H]1c1ccccc1N=[N+]=[N-] .
Reply | 1.69 (inactive)

Ask | Now consider O=C1[C@@]23C=C(Br)[C@H](C[C@@H]2COC3)[C@]12CO2 .
Reply | 0.732 (inactive)

Ask | Now consider O=C1OCC=C[C@H]2OC34C=CCN(Cn5nnc6ccccc65)C(=O)[C@H]3N(CCCCCO)C(=O)[C@@H]4[C@@H]12 (some centres not stated) .
Reply | 0.193 (inactive)

Ask | Now consider CC(C)CNC(=O)[C@@]1(Cc2ccccc2I)c2ccccc2C(=O)N(Cc2ccccc2C(F)(F)F)[C@H]1c1ccc(CO)cc1 .
Reply | -0.0528 (inactive)

Ask | Now consider CCCCCCc1nc(-c2ccc(-c3ccc(Cl)c(Cl)c3)o2)cc2c1[Si](C(C)C)(C(C)C)O[C@H]2c1ccccc1 .
Reply | -0.771 (inactive)

Ask | Now consider C#CCN1[C@H](/C=C/C2CC2)[C@H](Cc2ccccc2)OC(=O)[C@@H]1Cc1ccccc1 .
Reply | -0.283 (inactive)

Ask | Now consider CN1CCC(CCCO)=CC1c1cccs1 (configuration not stated) .
Reply | -0.377 (inactive)

Ask | Now consider CCOC(=O)C[C@H]1[C@H](OC(=O)c2cc3ccccc3oc2=O)[C@@H](NC(=O)CC(C)C)c2cc(OCCCO)ccc2N1C(=O)c1ccccc1 .
Reply | -1.39 (inactive)

Ask | Now consider C=C(/C(=C/C[C@H](OC(C)=O)c1ccc(OCCO)cc1)c1cc(C(=O)OC)ccc1OC)C(C)C .
Reply | 0.613 (inactive)

----------
# ASSAY_INFO: blockers of DNA damage checkpoint Chk1 activation – imaging, HeLa, hydroxyurea, phospho-Chk1 nuclear intensity, primary screen (AID 1187); further: test concentration not given here
# MEASUREMENT_CONDITIONS: hydroxyurea-induced phospho-Chk1 immunofluorescence imaging, higher = more signal
PROPERTY_MEASURED: z-score
Write no unit; give the number alone.

Ask | I would be grateful if you could share the reported z-score for COC(=O)[C@@]1(CCC(=O)OC(C)(C)C)N=C(c2ccc(OCCCO)cc2)O[C@H]1c1ccccc1 .
Reply | 0.284

Ask | Now consider CC(C)[Si](C#CCCCC#N)(O[C@H](c1ccccc1)c1cn(Cc2cccc(Cl)c2)nn1)C(C)C .
Reply | -0.968

Ask | Now consider CCCCN1CC=CC23O[C@@H]4C=CCCOC(=O)C4[C@H]2C(=O)N(CCCCCO)[C@@H]3C1=O (some centres undefined) .
Reply | -1.9

Ask | Now consider COC(=O)[C@@]1(Cc2ccc(OC)cc2)[C@H]2c3cc(C(=O)N4CCCC4)n(CCSCCO)c3C[C@H]2CN1C(=O)c1ccccc1 .
Reply | 1.04

----------
Catalogue of compounds with associated composite z-score
# ASSAY_INFO: probe aLAP1 signal on lysate-treated microarray – cell lysate, small-molecule microarray, COS7 lysate, primary screen (AID 1124);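 further: lysate comes from COS7 cells expressing LAP1 and is applied at 0.3 µg/mL; score merges spot fluorescence near 667 nm with signal-to-noise over triplicate slides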
# MEASUREMENT_CONDITIONS: probe aLAP1, fluorescence, higher = more signal
Write no unit; give the number alone.

- COMPOUND: "COc1cc2c(cc1O)C(c1cccs1)N(Cc1ccc([N+](=O)[O-])o1)CC2 (centres undefined)"
  composite z-score: 1.08
- COMPOUND: "CCCCN1CC=CC23O[C@@H]4C=CCOC(=O)[C@@H]4[C@H]2C(=O)N(CCCCCCO)[C@@H]3C1=O (some centres undefined)"
  composite z-score: 0.456
- COMPOUND: "[N-]=[N+]=NCc1ccccc1[C@@H]1OC(c2ccc(OCCCO)cc2)=N[C@]1(CCS(=O)(=O)c1ccccc1)C(=O)N1CCCCC1"
  composite z-score: 0.475

Ask | I would be grateful if you could share the reported composite z-score for CN1C(=O)C2C=CC(C(O)c3c(F)cccc3Cl)N(NC(=O)OC(C)(C)C)C2C1=O (centres undefined) .
Reply | 0.67

----------
# TEST_TARGET: Torsin-1A (Homo sapiens) (UniProt O14656)
# Sequence (O14656 whole entry, looked up): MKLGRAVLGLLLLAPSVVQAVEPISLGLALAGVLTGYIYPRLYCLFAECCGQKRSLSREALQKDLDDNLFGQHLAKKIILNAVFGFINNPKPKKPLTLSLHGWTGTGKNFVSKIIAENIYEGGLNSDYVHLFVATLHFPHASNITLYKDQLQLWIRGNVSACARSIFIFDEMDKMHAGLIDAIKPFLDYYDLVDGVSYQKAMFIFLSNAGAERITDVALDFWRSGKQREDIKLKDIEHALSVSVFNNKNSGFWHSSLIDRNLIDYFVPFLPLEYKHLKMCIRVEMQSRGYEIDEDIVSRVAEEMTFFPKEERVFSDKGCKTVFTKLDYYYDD
# ASSAY_INFO: torsin A mutant lysate binding on microarrays – cell lysate, small-molecule microarray, COS7 lysate, 635/667 nm fluorescence, primary screen (AID 1150);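 further: score pools 667 nm emission and signal to noise measuring lysate protein binding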
# MEASUREMENT_CONDITIONS: COS7 hTOR1A mutant lysate, 635 nm fluorescence, higher = more signal
PROPERTY_MEASURED: composite z-score
Write no unit; give the number alone.

Sample records with composite z-score:
- COMPOUND: "COc1ccc([Si](C)(C)[C@H]2[C@H](CCO)O[C@@]3(C(=O)N(Cc4ccccc4)c4ccc(N5CCCCC5=O)cc43)[C@@H]2C)cc1"
  PROPERTY_MEASURED: "composite z-score"
  RESULT_NUMBER: 1.67
- COMPOUND: "CN1C(=O)C2C=CC(C(O)c3ccc(F)cc3)N(N(c3ccccc3)c3ccccc3)C2C1=O (stereo not drawn)"
  PROPERTY_MEASURED: "composite z-score"
  RESULT_NUMBER: 0.361
- COMPOUND: "C=CC[C@]12N=C(c3ccc(OCCCO)cc3)O[C@H]1c1ccccc1N(CCS(=O)(=O)c1ccccc1)C2=O"
  PROPERTY_MEASURED: "composite z-score"
  RESULT_NUMBER: 0.79

Ask | I would be grateful if you could share the reported composite z-score for CCCCC(O)C1C=CC2C(=O)N(C)C(=O)C2N1N1CCCCC1 (stereo not drawn) .
Reply | 0.845

Ask | Now consider COCCCNC(=O)[C@@]1(Sc2ccc(C)cc2)CC(=O)N(Cc2ccccc2Cl)[C@@H]1c1ccc(CO)cc1 .
Reply | 0.582

----------
# ASSAY_INFO: probe aNOTCH3 binding on compound microarray – biochemical, small-molecule microarray, 635/667 nm fluorescence, primary screen (AID 1120);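 further: probe is a biotin-tagged antibody raised against NOTCH3 rather than NOTCH3 protein; score merges spot fluorescence near 667 nm with spot signal to noise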
# MEASUREMENT_CONDITIONS: higher = more signal
PROPERTY_MEASURED: composite z-score
Write no unit; give the number alone.

Sample records with composite z-score:
- MOLECULE: "C=CC[C@]12N=C(c3ccc(OCCCO)cc3)O[C@H]1c1ccccc1N(CCS(=O)(=O)c1ccccc1)C2=O"
  composite z-score: -0.0728
- MOLECULE: "COCCOC(=O)N1C(=O)[C@@]2(c3cc(C#CCCO)ccc31)[C@H](c1ccc(O)cc1)N1[C@H](c3ccccc3)[C@H](c3ccccc3)OC(=O)[C@H]1[C@@H]2C(=O)N1CCN(c2ncccn2)CC1"
  composite z-score: 1.28
- MOLECULE: "O=C1O[C@H](c2ccccc2)[C@H](c2ccccc2)N2[C@H]1[C@@H](C(=O)NC[C@H](O)c1ccccc1)[C@]1(C(=O)Nc3ccccc31)[C@H]2c1ccc(O)cc1"
  composite z-score: -0.0328

Ask | I would be grateful if you could share the reported composite z-score for O=C1OCCC=C[C@H]2OC34C=CCN(Cn5nnc6ccccc65)C(=O)[C@H]3N(CCO)C(=O)[C@@H]4C12 (some centres undefined) .
Reply | -0.475
